System: Tov112D
Experiment: Primary qHTS to identify gynecologic anti-cancer compounds using libraries of approved drugs and bioactive compounds (AID 1345084); further: nearly all actives have a fitted effect of over 55% in size
Settings: Gynecologic cancer cell panel viability, ATPlite luminescence, 48 h; series mostly up to 57.5 µM
Inconclusive results are not listed. Calls of active or inactive are those of the source. The call rests on the fitted dose curve; in most records, active means well fitted cell-killing curve with a large enough effect; inconclusive means small, poorly fitted or top-dose-only effect, or effect the other way; inactive means flat fitted curve, though single readings scatter.
Classes used: 1 (active), 0 (inactive)

[
  {
    "Molecule": "CC1=C2C[C@H]3[C@@H](CC=C4C[C@@H](O)CC[C@@]43C)[C@@H]2CC[C@]12O[C@@H]1C[C@H](C)CN[C@H]1[C@H]2C",
    "Assigned category": 0
  },
  {
    "Molecule": "CN[C@H]1[C@H](O)[C@H](O[C@@H]2[C@@H](O)[C@H](O[C@H]3O[C@H]([C@H](C)O)[C@@H](O)[C@H](O)[C@H]3N)[C@@H](N)C[C@H]2N)OC[C@@]1(C)O",
    "Assigned category": 0
  },
  {
    "Molecule": "CC(CCc1ccc(O)cc1)O[C@@H]1O[C@H](CO[C@H]2OC[C@](O)(CO)[C@H]2O)[C@@H](O)[C@H](O)[C@H]1O (stereo partly specified)",
    "Assigned category": 0
  },
  {
    "Molecule": "CN1CCCC1CCOC(c1cc2nccc(C(=O)O)c2[nH]1)c1ccccc1Cl (stereo unspecified)",
    "Assigned category": 0
  },
  {
    "Molecule": "N#C[C@@H](O[C@@H]1O[C@H](CO[C@@H]2O[C@H](CO)[C@@H](O)[C@H](O)[C@H]2O)[C@@H](O)[C@H](O)[C@H]1O)c1ccccc1",
    "Assigned category": 0
  },
  {
    "Molecule": "COc1c(C(C)C)cc2c(c1O)[C@@]1(C(=O)O)CCCC(C)(C)C1CC2 (stereo partly specified)",
    "Assigned category": 0
  },
  {
    "Molecule": "CCc1c(C(=O)C(N)=O)c2c(OCC(=O)OC)cccc2n1Cc1ccccc1",
    "Assigned category": 0
  },
  {
    "Molecule": "OC1(c2ccc(Cl)cc2)c2ccccc2C2=NCCN21 (stereo unspecified)",
    "Assigned category": 0
  },
  {
    "Molecule": "CC(C)C1(OO)C=C2C(=O)CC3C(C)(C(=O)O)CCCC3(C)C2CC1 (stereo unspecified)",
    "Assigned category": 0
  },
  {
    "Molecule": "C[C@H]1C(=O)O[C@H]2[C@H](O)[C@]34C5OC(=O)[C@]3(O[C@@H]3OC(=O)[C@H](O)C34[C@H](C(C)(C)C)[C@H]5O)C12O (stereo partly specified)",
    "Assigned category": 0
  },
  {
    "Molecule": "CN1C(=O)c2ccccc2NC(=O)C1Cc1ccccc1 (stereo unspecified)",
    "Assigned category": 0
  },
  {
    "Molecule": "N#CC(OC1OC(COC2OC(CO)C(O)C(O)C2O)C(O)C(O)C1O)c1ccccc1 (stereo unspecified)",
    "Assigned category": 0
  },
  {
    "Molecule": "CCC(C)(C#N)O[C@@H]1O[C@H](CO)[C@@H](O)[C@H](O)[C@H]1O (stereo partly specified)",
    "Assigned category": 0
  },
  {
    "Molecule": "COC(=O)C1(C)CCC(O)C2(C)c3c(O)cc(C(C)C)cc3C(O)C(OC(C)=O)C12 (stereo unspecified)",
    "Assigned category": 0
  },
  {
    "Molecule": "CCc1[nH]c2ccc(OC)cc2c1CCN(C)C",
    "Assigned category": 0
  },
  {
    "Molecule": "CN(C(=O)Cc1ccccc1)C(CN1CCCC1)c1ccccc1 (stereo unspecified)",
    "Assigned category": 0
  },
  {
    "Molecule": "C[C@@](O)(COc1ccc(C#N)cc1)C(=O)Nc1ccc(C#N)c(C(F)(F)F)c1",
    "Assigned category": 0
  },
  {
    "Molecule": "CC(N)Cc1c[nH]c2ccccc12 (stereo unspecified)",
    "Assigned category": 0
  },
  {
    "Molecule": "CC[C@H]1CN2CC[C@H]1C[C@@H]2[C@@H](O)c1ccnc2ccc(OC)cc12",
    "Assigned category": 0
  },
  {
    "Molecule": "C=CC(C)(C)c1[nH]c2cccc3c2c1C[C@@H]1[C@@H]3[C@@H](OC(C)=O)[C@H](C)CN1C",
    "Assigned category": 0
  },
  {
    "Molecule": "Cc1cn(C[C@H](N)C(=O)O)c(=O)n(Cc2cc(-c3ccccc3)sc2C(=O)O)c1=O",
    "Assigned category": 0
  },
  {
    "Molecule": "COC(=O)C1(C)CCC(O)C2(C)c3cc(O)c(C(C)C)cc3C(O)C(OC(C)=O)C12 (stereo unspecified)",
    "Assigned category": 0
  },
  {
    "Molecule": "CC(C)=C1CC[C@]23CO[C@H](C2)[C@@](O)(C(=O)O)CCC13 (stereo partly specified)",
    "Assigned category": 0
  },
  {
    "Molecule": "O=C(N1CCOCC1)N1CCN(c2ccc(Cl)cc2)CC1",
    "Assigned category": 0
  },
  {
    "Molecule": "CC(C)[C@@H](CN1CC[C@@](C)(c2cccc(O)c2)[C@@H](C)C1)NC(=O)[C@H]1Cc2ccc(O)cc2CN1",
    "Assigned category": 0
  },
  {
    "Molecule": "COC1=CC(=O)O[C@@H](CCc2ccccc2)C1",
    "Assigned category": 0
  },
  {
    "Molecule": "Cn1ncnc1COc1nn2c(-c3c(F)cccc3F)nnc2cc1C1CCC1",
    "Assigned category": 0
  },
  {
    "Molecule": "CC(=O)OC1CC(O)C(C)(C)C2CC(OC(C)=O)C3(C)C(CCC4(C)C(c5ccoc5)C(=O)C5OC543)C12C (stereo unspecified)",
    "Assigned category": 0
  },
  {
    "Molecule": "COC1CC(OC2CCC3(C=O)C(CCC4C3CCC3(C)C(C5=CC(=O)OC5)CCC43O)C2)OC(C)C1OC1OC(CO)C(O)C(O)C1O (stereo unspecified)",
    "Assigned category": 1
  },
  {
    "Molecule": "Cc1c(Cl)cccc1S(=O)(=O)Nc1nc(CC(=O)N2CCN(C)CC2)cs1",
    "Assigned category": 0
  },
  {
    "Molecule": "CC1C/C=C/C(O)C(O)CC/C=C/c2cc(O)cc(O)c2C(=O)O1 (stereo unspecified)",
    "Assigned category": 0
  }
]

---

Target: Thyrotropin receptor (Homo sapiens)
Assay: qHTS Assay for Antagonists of the Thyroid Stimulating Hormone Receptor (AID 488980);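 further: TSHR-transfected HEK293 cells stimulated with TSH at EC80 of 4 nM; 0% is about no effect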
Settings: TSHR-expressing cells, cAMP antagonist read-out; series mostly up to 57.5 µM
Calls of active or inactive are those of the source. Calls follow the shape of the dose curve; as a rule, active = well fitted curve in the direction sought with a large enough effect; inconclusive = small, poorly fitted or top-dose-only effect, or another doubt; inactive = no such curve, though single readings can be large or run the other way.

[
  {
    "Compound": "CN1CC[C@@]2(C)c3cc(O)ccc3N(C)C12 (stereo partly drawn)",
    "outcome": "inactive"
  },
  {
    "Compound": "CN(N=O)c1cc(O)ccc1O",
    "outcome": "inactive"
  },
  {
    "Compound": "CN1C2CCC1CC(OC(c1ccccc1)c1ccccc1N)C2 (stereo not drawn)",
    "outcome": "inactive"
  },
  {
    "Compound": "O=P(O)(O)C(Cl)(Cl)P(=O)(O)O",
    "outcome": "inactive"
  },
  {
    "Compound": "CC(N)c1cccc(Cl)c1Cl (stereo not drawn)",
    "outcome": "inactive"
  },
  {
    "Compound": "C#CCN[C@H](C)Cc1ccccc1",
    "outcome": "inactive"
  },
  {
    "Compound": "NCCc1c[nH]c2ccc(C(N)=O)cc12",
    "outcome": "inactive"
  },
  {
    "Compound": "Clc1cc(I)cc(Cl)c1NC1=NCCN1",
    "outcome": "inactive"
  }
]

---

Assay: Cell Viability - LYMP2-019 (AID 973);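 further: cells exposed to compound for 24 h at 37 °C; nearly all actives have a fitted effect of over 55% in size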; further: potency means the concentration at half of the fitted maximal effect
Settings: LYMP2-019 lymphoblastoid cell line viability; series mostly up to 92.2 µM
Results filed as inconclusive are left out. The source made the active and inactive calls. The call rests on the fitted dose curve; in most records, active means well fitted cell-killing curve with a large enough effect; inconclusive means small, poorly fitted or top-dose-only effect; inactive means flat fitted curve, though single readings scatter.

[
  {
    "Compound structure string": "[O]=[Cd]",
    "Potency": "inactive"
  },
  {
    "Compound structure string": "O=C(O)C(Cl)(Cl)Cl",
    "Potency": "inactive"
  },
  {
    "Compound structure string": "COC1=CC(=O)O[C@@H](/C=C/c2ccccc2)C1",
    "Potency": "inactive"
  },
  {
    "Compound structure string": "O=C1C=CC(=O)C=C1",
    "Potency": "50.1 µM (active)"
  },
  {
    "Compound structure string": "S=C=S",
    "Potency": "inactive"
  }
]

---

Test system: CP335
Assay: qHTS profiling for inhibitors of Plasmodium falciparum proliferation (AID 504749); further: nearly all actives have a fitted effect of over 60% in size; further: potency means the concentration at half of the fitted maximal effect
Settings: P. falciparum in erythrocytes, SYBR Green DNA, 72 h; series mostly up to 28.7 µM
Inconclusive results are not listed. Activity calls are given as the source filed them. Calls come from the whole dose curve; as a rule, active = well fitted inhibition curve with a large enough effect; inconclusive = small, poorly fitted or top-dose-only effect; inactive = flat fitted curve, though single readings scatter.

[
  {
    "Compound": "O=[N+]([O-])c1ccc(F)c([N+](=O)[O-])c1",
    "Potency": "inactive"
  },
  {
    "Compound": "CCC1(c2ccccc2)C(=O)NC(=O)N(C(=O)c2ccccc2)C1=O (configuration not stated)",
    "Potency": "inactive"
  },
  {
    "Compound": "CC(Cc1ccccc1)NC=O (configuration not stated)",
    "Potency": "inactive"
  },
  {
    "Compound": "c1ccc2cc(CC3=NCCN3)ccc2c1",
    "Potency": "inactive"
  },
  {
    "Compound": "CCC1(CC)C(=O)NC(=O)N(C)C1=O",
    "Potency": "inactive"
  },
  {
    "Compound": "CNC1(c2ccccc2Cl)CCCCC1=O (configuration not stated)",
    "Potency": "inactive"
  },
  {
    "Compound": "O=Cc1ccco1",
    "Potency": "inactive"
  },
  {
    "Compound": "CCC(N)Cc1c[nH]c2ccccc12 (configuration not stated)",
    "Potency": "inactive"
  },
  {
    "Compound": "COc1ccc(OC)c(C(O)C(C)N)c1 (configuration not stated)",
    "Potency": "inactive"
  },
  {
    "Compound": "CC(C)(C)c1cc(O)ccc1O",
    "Potency": "5360 nM (active)"
  },
  {
    "Compound": "O=C(CCl)c1ccc(Oc2ccc(C(=O)CCl)cc2)cc1",
    "Potency": "inactive"
  },
  {
    "Compound": "O[C@H]1[C@H]2[C@H](O)CCCN2C[C@H]1O",
    "Potency": "inactive"
  },
  {
    "Compound": "CNC(C)C(O)c1ccc(O)cc1 (configuration not stated)",
    "Potency": "inactive"
  },
  {
    "Compound": "C/C(=C\\c1csc(C)n1)[C@@H]1C[C@@H]2O[C@]2(C)CCC[C@H](C)[C@H](O)[C@@H](C)C(=O)C(C)(C)[C@@H](O)CC(=O)O1",
    "Potency": "1.2 nM (active)"
  },
  {
    "Compound": "O=C(OCCN1CCCCC1)C(O)(c1ccccc1)c1ccccc1",
    "Potency": "inactive"
  },
  {
    "Compound": "CCC(C)(S(=O)(=O)CC)S(=O)(=O)CC",
    "Potency": "inactive"
  },
  {
    "Compound": "S=C(S)N1CCNCC1",
    "Potency": "inactive"
  },
  {
    "Compound": "[N-]=[N+]=CC(=O)OCC(N)C(=O)O (configuration not stated)",
    "Potency": "inactive"
  },
  {
    "Compound": "CCC(=O)O[C@@](Cc1ccccc1)(c1ccccc1)[C@@H](C)CN(C)C",
    "Potency": "inactive"
  },
  {
    "Compound": "CCOC(=O)c1ccccc1C(=O)OCC",
    "Potency": "inactive"
  },
  {
    "Compound": "NCC(O)c1cccc(O)c1 (configuration not stated)",
    "Potency": "inactive"
  },
  {
    "Compound": "COC1=CC=C2[C@H]3Cc4ccc(OC)c5c4[C@@]2(CCN3C)[C@H]1O5",
    "Potency": "inactive"
  },
  {
    "Compound": "CC(=O)OO",
    "Potency": "inactive"
  },
  {
    "Compound": "C=CCN1CCC23c4c5ccc(O)c4O[C@H]2C(=O)CC[C@@]3(O)C1C5 (some centres not stated)",
    "Potency": "inactive"
  },
  {
    "Compound": "Oc1cc(Cl)c(Cl)cc1Cl",
    "Potency": "inactive"
  },
  {
    "Compound": "CCOc1ccc2c3c1O[C@H]1[C@@H](O)C=C[C@H]4[C@@H](C2)N(C)CC[C@@]341",
    "Potency": "inactive"
  },
  {
    "Compound": "CCCCCCCCOC(=O)c1ccccc1C(=O)OCCCCCCCC",
    "Potency": "inactive"
  }
]
